Where these numbers come from: patent US20070254831A1

Recorded IC50 for the following binders
Tested System: T1, soluble human FcRn (human, UniProt P55899 24-297; P61769 21-119, biotinylated (Sulfo-NHS-LC-Biotin) in the ELISA; amine-coupled to CM5 chip in SPR)
T1 construct: also called shFcRn; biotinylated shFcRn
T1 sequence (P55899 24-297 limits assumed, chain 1 of 2): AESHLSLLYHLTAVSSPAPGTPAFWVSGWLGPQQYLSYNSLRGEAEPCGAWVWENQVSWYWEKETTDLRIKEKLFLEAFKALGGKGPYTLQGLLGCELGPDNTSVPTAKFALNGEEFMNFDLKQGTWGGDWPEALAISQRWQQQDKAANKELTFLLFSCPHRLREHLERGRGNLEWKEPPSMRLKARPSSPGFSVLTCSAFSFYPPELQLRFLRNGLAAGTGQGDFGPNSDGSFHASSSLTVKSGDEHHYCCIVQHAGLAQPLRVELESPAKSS
T1 sequence (P61769 21-119 limits assumed, chain 2 of 2): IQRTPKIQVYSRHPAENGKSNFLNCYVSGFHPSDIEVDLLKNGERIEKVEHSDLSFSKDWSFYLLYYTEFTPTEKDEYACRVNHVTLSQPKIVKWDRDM
Assay Method Text: ELISA, competitor human IgG
Bridge positions count the residues as written; N and C are the ends. Ends that are not written are not given here.
Numeric answer only, unit µM assumed.

QAFCTGHFGGLYPCNGP-NH2 (disulfide 4-14 (inferred)) [SEQ ID NO:25] :: 23
QRFCAGHFGGLYPCNGP-NH2 (disulfide 4-14 (inferred)) [SEQ ID NO:27] :: 30
QRFCTGHFGGAYPCNGP-NH2 (disulfide 4-14 (inferred)) [SEQ ID NO:33] :: 107

Kindly review the next binder as well.
Inquiry: Which value of IC50 has been reported for QRFCTGHFGGLYPCAGP-NH2 (disulfide 4-14 (inferred)) [SEQ ID NO:36] in the records?
Reply text: 30
